- Test system: MDA-MB-231 breast adenocarcinoma cell line
- method_summary: DIMSCAN cytotoxicity, fenretinide + L-threo-sphinganines 3:1 (Example B14)
- Assay type: cell-based, human
- measurement_conditions: MDA-MB-231, 20% O2; 4-HPR 3 μM + L-threo-sphinganine 1 μM; 96 h
test_readout: CI (Combination Index)

• CCCCCCCCC[C@H](O)[C@@H](N)CO [C12] = 0.9
• CCCCCCCCCCCCCC[C@H](O)[C@@H](N)CO [C17, (2S,3S)-2-amino-1,3-heptadecanediol] = 0.9
• CCCCCCCCCCCCCCCCC[C@H](O)[C@@H](N)CO [C20, (2S,3S)-2-amino-1,3-icosanediol] = 1.1
• CCCCCCCCCCCCCCC[C@H](O)[C@@H](N)CO [C18, (2S,3S)-2-amino-1,3-octadecanediol, reference compound] = 1.8
• CCCCCCCCCCCCCCCC[C@H](O)[C@@H](N)CO [C19, (2S,3S)-2-amino-1,3-nonadecanediol] = 1.2

###

- Test system: PANC-1 pancreatic adenocarcinoma cell line
- method_summary: DIMSCAN cytotoxicity, fenretinide + L-threo-sphinganines 3:1 (Example B18)
- Assay type: cell-based, human
- measurement_conditions: 4-HPR 1.5 μM + L-threo-sphinganine 0.5 μM
test_readout: CI

- CCCCCCCCCCCCCCCCC[C@H](O)[C@@H](N)CO: 1.9
- CCCCCCCCCCCC[C@H](O)[C@@H](N)CO: 2.9
- CCCCCCCCCCCCCC[C@H](O)[C@@H](N)CO: 1.5
- CCCCCCCCCCCCCCCCCC[C@H](O)[C@@H](N)CO: 2.5
- CCCCCCCCCCCCCCCC[C@H](O)[C@@H](N)CO: 1.5
- CCCCCCCCC[C@H](O)[C@@H](N)CO: 0.9
- CCCCCCCCCCC[C@H](O)[C@@H](N)CO: 3.2
- CCCCCCCCCCCCCCC[C@H](O)[C@@H](N)CO [C18, (2S,3S)-2-amino-1,3-octadecanediol, reference compound]: 2.5

###

- Test system: MDA-MB-231 breast adenocarcinoma cell line
- method_summary: DIMSCAN cytotoxicity, fenretinide + L-threo-sphinganines 3:1 (Example B14)
- Format: cell-based, human
- measurement_conditions: MDA-MB-231, 20% O2; 4-HPR 3 μM + L-threo-sphinganine 1 μM; 96 h
test_readout: Fa (fraction affected)

• CCCCCCCCCCCCCCCCC[C@H](O)[C@@H](N)CO = 0.190
• CCCCCCCCCCCCCCC[C@H](O)[C@@H](N)CO [C18, (2S,3S)-2-amino-1,3-octadecanediol, reference compound] = 0.207
• CCCCCCCCC[C@H](O)[C@@H](N)CO = 0.052
• CCCCCCCCCCCCCCCC[C@H](O)[C@@H](N)CO = 0.195
• CCCCCCCCCCCCCC[C@H](O)[C@@H](N)CO = 0.265

###

- Test system: HT-29 colorectal adenocarcinoma cell line
- method_summary: DIMSCAN cytotoxicity, fenretinide + L-threo-sphinganines 3:1 (Example B10)
- Type: cell-based, human
- measurement_conditions: 4-HPR 1.5 μM + L-threo-sphinganine 0.5 μM, 96 h
CI (Combination Index) values for the compounds below.
test_readout: CI (Combination Index)

- CCCCCCCCCCC[C@H](O)[C@@H](N)CO [C14]: 1.0
- CCCCCCCCCCCCCC[C@H](O)[C@@H](N)CO [C17, (2S,3S)-2-amino-1,3-heptadecanediol]: 1.1
- CCCCCCCCCCCCCCC[C@H](O)[C@@H](N)CO [C18, (2S,3S)-2-amino-1,3-octadecanediol, reference compound]: 0.9
- CCCCCCCCCCCCCCCC[C@H](O)[C@@H](N)CO [C19, (2S,3S)-2-amino-1,3-nonadecanediol]: 1.2
- CCCCCCCCCCCC[C@H](O)[C@@H](N)CO [C15]: 2.0
- CCCCCCCCCCCCCCCCCC[C@H](O)[C@@H](N)CO [C21]: 1.2
- CCCCCCCCCCCCCCCCC[C@H](O)[C@@H](N)CO [C20, (2S,3S)-2-amino-1,3-icosanediol]: 0.8
- CCCCCCCCC[C@H](O)[C@@H](N)CO [C12]: 1.0

###

- System: OVCAR-8 ovarian adenocarcinoma cell line
- method_summary: DIMSCAN cytotoxicity, fenretinide + L-threo-sphinganines 3:1 (Example B15)
- Type: cell-based, human
- Design: key: Chou-Talalay CI: <0.9 synergy, 0.9-1.1 additive, >1.1 antagonism
- measurement_conditions: 4-HPR 9 μM + L-threo-sphinganine 3 μM, 96 h
- Protocol: Cytotoxicity Assay—Once again, cytotoxicity is determined using the DIMSCAN assay system (R. Proffitt et al., Cytometry 24, 204-213 (1996); T. Frgala et al., Mol Cancer Ther. 6:886-97, 2007). The system employs digital imaging microscopy to quantify viable cells, which selectively accumulate fluorescein diacetate to become brightly fluorescent. […] Measured fluorescence is directly proportionate to the number of viable cells. […]
test_readout: CI (Combination Index)

- CCCCCCCCCCCC[C@H](O)[C@@H](N)CO: 0.2
- CCCCCCCCCCCCCCCCC[C@H](O)[C@@H](N)CO: 0.2
- CCCCCCCCC[C@H](O)[C@@H](N)CO: 0.8
- CCCCCCCCCCCCCC[C@H](O)[C@@H](N)CO: 0.4

###

- System: RPMI-8226 Multiple Myeloma cell line
- method_summary: DIMSCAN cytotoxicity, fenretinide + L-threo-sphinganines 3:1 (Example B2)
- Assay type: cell-based, human
- measurement_conditions: 4-HPR 1.5 μM + L-threo-sphinganine 0.5 μM, 96 h
Known CI (Combination Index) of a selection of molecules
test_readout: CI (Combination Index)

• CCCCCCCCCCC[C@H](O)[C@@H](N)CO [C14] = 0.8
• CCCCCCCCCCCCCCC[C@H](O)[C@@H](N)CO [C18, (2S,3S)-2-amino-1,3-octadecanediol, reference compound] = 1.0
• CCCCCCCCCCCC[C@H](O)[C@@H](N)CO [C15] = 1.0
• CCCCCCCCCCCCCCCCCC[C@H](O)[C@@H](N)CO [C21] = 1.2
• CCCCCCCCC[C@H](O)[C@@H](N)CO [C12] = 0.8

###

- Test system: T98G Glioblastoma multiforme cell line
- method_summary: DIMSCAN cytotoxicity, fenretinide + L-threo-sphinganines 3:1 (Example B6)
- Format: cell-based, human
- measurement_conditions: 4-HPR 3 μM + L-threo-sphinganine 1 μM, 96 h
test_readout: CI (Combination Index)

* CCCCCCCCCCCCCC[C@H](O)[C@@H](N)CO | 0.3
* CCCCCCCCCCC[C@H](O)[C@@H](N)CO | 1.6
* CCCCCCCCCCCC[C@H](O)[C@@H](N)CO | 1.3
* CCCCCCCCCCCCCCC[C@H](O)[C@@H](N)CO [C18, (2S,3S)-2-amino-1,3-octadecanediol, reference compound] | 1.316
* CCCCCCCCC[C@H](O)[C@@H](N)CO | 3.6
* CCCCCCCCCCCCCCCCCC[C@H](O)[C@@H](N)CO | 1.0
* CCCCCCCCCCCCCCCC[C@H](O)[C@@H](N)CO | 1.1
* CCCCCCCCCCCCCCCCC[C@H](O)[C@@H](N)CO | 0.2

###

Fa (fraction affected) for assorted compounds
- Test system: OVCAR-8 ovarian adenocarcinoma cell line
- method_summary: DIMSCAN cytotoxicity, fenretinide + L-threo-sphinganines 3:1 (Example B15)
- Type: cell-based, human
- measurement_conditions: 4-HPR 6 μM + L-threo-sphinganine 2 μM, 96 h
test_readout: Fa (fraction affected)

• CCCCCCCCCCC[C@H](O)[C@@H](N)CO = 0.978
• CCCCCCCCCCCCCC[C@H](O)[C@@H](N)CO = 0.676
• CCCCCCCCCCCCCCC[C@H](O)[C@@H](N)CO [C18, (2S,3S)-2-amino-1,3-octadecanediol, reference compound] = 0.536
• CCCCCCCCCCCCCCCCCC[C@H](O)[C@@H](N)CO = 0.977
• CCCCCCCCCCCCCCCC[C@H](O)[C@@H](N)CO = 0.943
• CCCCCCCCCCCC[C@H](O)[C@@H](N)CO = 0.977
• CCCCCCCCC[C@H](O)[C@@H](N)CO = 0.634
• CCCCCCCCCCCCCCCCC[C@H](O)[C@@H](N)CO = 0.453

###

- Test system: MCF-7 breast adenocarcinoma cell line
- method_summary: DIMSCAN cytotoxicity, fenretinide + L-threo-sphinganines 3:1 (Example B14)
- Type: cell-based, human
- measurement_conditions: 4-HPR 9 μM + L-threo-sphinganine 3 μM, 96 h
Would you please tag the item TRUE when its CI (Combination Index) is 0.4 or above, and FALSE when it is below?

* CCCCCCCCC[C@H](O)[C@@H](N)CO | TRUE
* CCCCCCCCCCCCCCC[C@H](O)[C@@H](N)CO [C18, (2S,3S)-2-amino-1,3-octadecanediol, reference compound] | TRUE
* CCCCCCCCCCCCCCCC[C@H](O)[C@@H](N)CO | TRUE
* CCCCCCCCCCCCCCCCC[C@H](O)[C@@H](N)CO | FALSE

Attribution: patent US20110152267A1
